System: HCC1599
Experiment: normalised response (% of control), CellTox Green; higher = less cell death (100 = DMSO, 0 = benzethonium chloride kill control)
Settings: incubation time: 72 h
measure: normalised response (%)
One number for each entry, in %.

compound	scaleUnit	normalised response
CCC1(c2ccc(N)cc2)CCC(=O)NC1=O (centres undefined) [Aminoglutethimide] (100 nM)	%	104
CNCc1ccc(-c2[nH]c3cc(F)cc4c3c2CCNC4=O)cc1 [Rucaparib] (10000 nM)	%	93.7
NC(=O)Nc1cc(-c2cccc(F)c2)sc1C(=O)N[C@H]1CCCNC1 [AZD7762] (1000 nM)	%	98

Now for a further compound.
Q. GET normalised response where system = HCC1599 and item = C=C(c1ccc(C(=O)O)cc1)c1cc2c(cc1C)C(C)(C)CCC2(C)C [Bexarotene] (100 nM)
A. 105

###

Tested on: CAL-51
Experiment: normalised response (% of control), CellTiter-Glo; higher = more viable cells (100 = DMSO, 0 = benzethonium chloride kill control)
Conditions: incubation time: 72 h
measure: normalised response

compound	endpointValue
Cc1ccc(C(=O)Nc2ccc(CN3CCN(C)CC3)c(C(F)(F)F)c2)cc1C#Cc1cnc2cccnn12 [Ponatinib] (1000 nM)	47%
Cn1c(Nc2ccc(C(F)(F)F)cc2)nc2cc(Oc3ccnc(-c4ncc(C(F)(F)F)[nH]4)c3)ccc21 [RAF265] (1000 nM)	52.1%

# batch size: 4; output normalised response per entry
1. CC(C)Cn1cnc2c(N)nc3ccccc3c21 [Imiquimod] (2500 nM)
2. CO[C@H]1/C=C\C=C(/C)C(=O)NC2=CC(=O)C(NCCN(C)C)=C(C[C@@H](C)C[C@H](OC)[C@H](O)[C@@H](C)/C=C(\C)[C@@H]1OC(N)=O)C2=O [Alvespimycin] (1000 nM)
3. N.N.[Cl][Pt][Cl] [Cisplatin] (1000 nM)
4. CCC1=C[C@@H]2CN(C1)Cc1c([nH]c3ccccc13)[C@@](C(=O)OC)(c1cc3c(cc1OC)N(C)[C@H]1[C@@](O)(C(=O)OC)[C@H](OC(C)=O)[C@]4(CC)C=CCN5CC[C@]31[C@@H]54)C2 [Vinorelbine] (10000 nM)

A.
1. 92.8%
2. 16.2%
3. 87.5%
4. 27.5%

Q. Quickly give me recorded normalised response for COc1cc([C@@H]2c3cc4c(cc3[C@@H](O[C@@H]3O[C@@H]5CO[C@@H](C)O[C@H]5[C@H](O)[C@H]3O)[C@H]3COC(=O)[C@H]23)OCO4)cc(OC)c1O [Etoposide] (10000 nM)
A. 23.9%

###

Exercise: for every item that follows, state its recorded normalised response.
System: DU-4475
Assay: normalised response (% of control), CellTiter-Glo; higher = more viable cells (100 = DMSO, 0 = benzethonium chloride kill control)
Conditions: incubation time: 72 h
Numbers only, in %.

Reference set, count: 3
compound	normalised response / %
N#CCNC(=O)c1ccc(-c2ccnc(Nc3ccc(N4CCOCC4)cc3)n2)cc1 [Momelotinib] (10 nM)	97.2
N.N.[Cl][Pt][Cl] [Cisplatin] (0.1 nM)	92
Cn1c(Nc2ccc(C(F)(F)F)cc2)nc2cc(Oc3ccnc(-c4ncc(C(F)(F)F)[nH]4)c3)ccc21 [RAF265] (1 nM)	109

Field: normalised response. Fill in for each record below.
1. CNCc1ccc(-c2[nH]c3cc(F)cc4c3c2CCNC4=O)cc1 [Rucaparib] (1 nM)
2. CN(C)/N=N/c1[nH]cnc1C(N)=O [Dacarbazine] (1 nM)
3. CS(=O)(=O)c1ccc(C2=C(c3ccccc3)C(=O)OC2)cc1 [Rofecoxib] (10 nM)

A.
1. 99.4
2. 104
3. 105

For each of the compounds below, note its normalised response.
1. CN(C)/N=N/c1[nH]cnc1C(N)=O [Dacarbazine] (1000 nM)
2. O=C(CCCCCCC(=O)Nc1ccc([C@H]2O[C@@H](CSc3nc(-c4ccccc4)c(-c4ccccc4)o3)C[C@@H](c3ccc(CO)cc3)O2)cc1)NO [Tubacin] (1000 nM)

A.
[101, 91.9]
